Data credit: paper PMC9172573

Test system: T1, His6-MBP-PHD3 (PHD3 domain of histone demethylase KDM5A) (UniProt P29375 1609-1659)
T1 chain: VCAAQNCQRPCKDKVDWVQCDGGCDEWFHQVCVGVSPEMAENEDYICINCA
Protocol details: FP
Square brackets hold non-standard residues; d marks the D form. Ends that are not written are not given here. Lys(Me3) = C[N+](C)(C)CCCC[C@H](N)C(=O)O; Arg(Me) = CNC(=N)NCCC[C@H](N)C(=O)O; Aib = CC(C)(N)C(=O)O
Param label: returns 1 (yes) when Ki < 300 nM, returns 0 (no) otherwise, including exact equality.

Identify whether the binder Me-ART[Lys(Me3)]QT [N-terminally methylated H3K4me3 6mer peptide (3)] records Ki below 300 nM.
1 (yes)

Item [Aib]RT[Lys(Me3)]QT [2-aminoisobutyric acid-containing peptide 7] : Ki beneath 300 nM, strictly?
0 (no)

Decide: Ki of ART[Lys(Me3)]YT [H3K4me3 6mer peptide 15 (Q5 replaced with tyrosine)] strictly below 300 nM?
0 (no)

Answer whether the binder Ac-ART[Lys(Me3)]QT [N-terminally acetylated H3K4me3 6mer peptide (2)] has Ki strictly less than 300 nM
0 (no)

Please indicate whether the reported Ki of A[Arg(Me)]T[Lys(Me3)]QT [H3K4me3 6mer peptide 10 (R2 guanidino group monomethylated)] is strictly below 300 nM.
1 (yes)

Lab note: confirm whether the reported Ki for this binder is below 300 nM, equality not counting. binder: ARV[Lys(Me3)]QT [H3K4me3 6mer peptide 13 (T3V)]
1 (yes)
